test: qHTS for Inhibitors of Plasmodium falciparum (7G8) proliferation (AID 504316);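 note: 0% = DMSO vehicle and -100% = 0.29 µM artemisinin full kill; nearly all actives have a fitted effect of over 65% in size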; conditions: P. falciparum 7G8 in erythrocytes, SYBR Green DNA, 72 h; series mostly up to 6.7 µM
Records with an inconclusive call do not appear. Calls of active or inactive are those of the source. Calls come from the whole dose curve; as a rule, active = well fitted inhibition curve with a large enough effect; inconclusive = small, poorly fitted or top-dose-only effect; inactive = flat fitted curve, though single readings scatter.
Result category, one only: class 1 (active), class 0 (inactive)

query: Given C=CCN1c2ccccc2[C@]23C[C@@H](C(=O)OC)N=C2NC(C(=O)OC)=C(C(=O)OC)[C@H]13 , state the outcome it received in this test.
result: class 0

* * *

biological target: Tumor susceptibility gene 101 protein (Homo sapiens) (UniProt Q99816); assay: qHTS Assay for Iinhibitors of HIV-1 Budding by Blocking the Interaction of PTAP/TSG101: Hit Validation (AID 651600); conditions: PTAP peptide/TSG101 UEV interaction, biochemical assay; series mostly up to 57.5 µM; note: nearly all actives have a fitted effect of over 70% in size
Sequence (Q99816 whole entry, looked up): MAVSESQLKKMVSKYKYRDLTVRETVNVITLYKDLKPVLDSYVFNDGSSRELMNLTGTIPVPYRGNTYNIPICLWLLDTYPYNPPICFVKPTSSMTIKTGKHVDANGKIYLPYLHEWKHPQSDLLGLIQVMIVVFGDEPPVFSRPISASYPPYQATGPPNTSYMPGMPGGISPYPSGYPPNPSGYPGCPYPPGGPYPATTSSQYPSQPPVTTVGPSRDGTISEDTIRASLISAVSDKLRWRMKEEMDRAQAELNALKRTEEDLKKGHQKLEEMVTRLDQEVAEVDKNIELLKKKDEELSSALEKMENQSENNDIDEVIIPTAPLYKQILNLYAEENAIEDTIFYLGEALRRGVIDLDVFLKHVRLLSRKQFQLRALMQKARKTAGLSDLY
Inconclusive results are not listed. The source made the active and inactive calls. The call rests on the fitted dose curve; in most records, active means well fitted inhibition curve with a large enough effect; inconclusive means small, poorly fitted or top-dose-only effect; inactive means no such curve, though single readings can be large or run the other way.
Your answer must be one of the following: active, inactive

COc1cccc2c1C(=O)c1c(O)c3c(c(O)c1C2=O)CC(O)(C(C)=O)CC3OC1CC(O)C(O)C(C)O1 (stereo unspecified) = active
CCOC(=O)C1CCCN(c2nc3ccccc3nc2C(C#N)C(=O)NCc2ccccc2)C1 (stereo unspecified) = inactive
COc1ccccc1N1C(C)=CC(=C(C#N)c2nc3ccccc3s2)C=C1C = active
CCN(C(=O)c1sc2nc3n(c(=O)c2c1C)CCCC3)c1ccccc1F = inactive
O=C1/C(=N\S(=O)(=O)c2cccs2)C([n+]2cccc(Cc3ccccc3)c2)=C([O-])c2ccccc21 = active

query: Called result for CC1C2C(c3ccccc3)N(C)C(=O)N(C)C2N(C)C(=O)N1C (stereo unspecified)
result: inactive

query: Could you please tell me the result logged for CC(C)(C)C(=O)c1sc2nc(-c3cccs3)cc(C(F)(F)F)c2c1N in this assay?
result: inactive

query: Record request — test call for O=C1NC(c2ccco2)Nc2sc3c(c21)CCN(Cc1ccccc1)C3 (stereo unspecified)
result: inactive

query: Tell me the recorded outcome of this test for Cn1cc(/C=C2\SC(=S)N(NC(=O)c3ccccc3)C2=O)c2ccccc21 .
result: inactive

query: Returns: the outcome recorded for O=C(CC1CC2CCC1C2)NCc1cccs1 (stereo unspecified) in this assay.
result: inactive

query: Returns: the outcome recorded for CCCn1c(=N)c(S(=O)(=O)c2ccccc2)cc2c(=O)n3cccc(C)c3nc21 in this assay.
result: inactive

query: What was the test verdict on COC(=O)C[C@H]1c2cc(F)ccc2S(=O)(=O)N1c1ccccc1 ?
result: inactive

query: Check the results log: what was the call for CCc1c(C)sc(NC(=O)c2ccccc2[N+](=O)[O-])c1C(N)=O ?
result: inactive

query: Please let me know the test result on file for CCOC(=O)N1CCN(c2nc3ccccc3nc2C(C#N)S(=O)(=O)c2ccc(C)cc2)CC1 (stereo unspecified) .
result: inactive

query: # lookup: test call for CC1=CC(=C(C#N)c2nc3ccccc3s2)C=C(C)N1CC1CCCO1 (stereo unspecified)
result: active

query: Which outcome was entered for the compound CCc1cccc(CC)c1NC(=O)CSc1nnc(C2CC2)n1C in this test?
result: inactive

query: How was Cn1nc([N+](=O)[O-])c(C(C#N)c2nc3ccccc3n2C)c(Cl)c1=O (stereo unspecified) classified in this test?
result: inactive

query: Which outcome was entered for the compound O=[N+]([O-])c1cc(Cl)cc(/C=N/NC(=S)Nc2ccc(S(=O)(=O)N3CCOCC3)cc2)c1O in this test?
result: inactive

query: Status in this test for CCC(=O)Oc1ccc2c(c1)O/C(=C\c1ccco1)C2=O ?
result: active

query: Please indicate how the test categorized CC(C)c1cc(=O)oc2c3c4c(cc12)CCCN4CCC3 .
result: active

query: # fetch the recorded call for O=[N+]([O-])c1cc(Cl)cc(/C=N/n2cnnc2)c1O here
result: inactive

* * *

biological target: Cytochrome P450 3A4 (Homo sapiens); experiment: qHTS Assay for Inhibitors and Substrates of Cytochrome P450 3A4 (AID 884); conditions: recombinant CYP3A4, Luciferin-PPXE luminescence; series mostly up to 57.1 µM; note: nearly all actives have a fitted effect of over 50% in size
Inconclusive results are not listed. Activity calls are given as the source filed them. The call rests on the fitted dose curve; in most records, active means well fitted inhibition curve with a large enough effect; inconclusive means small, poorly fitted or top-dose-only effect; inactive means no such curve, though single readings can be large or run the other way.
Outcome field: choose from 1.0 (active), 0.0 (inactive)

Known results for compounds:
CCC1=C2CC[C@H]3C(=O)N(c4ccccc4)C(=O)[C@H]3[C@H]2[C@@]2(Cc3ccccc3)C(=NCCc3c[nH]c4ccccc34)OC(=O)N2C1=O = 1.0
O[N+]1=CC=CCC1=S.On1ccccc1=S.[Zn] = 0.0
CCCNC(=O)OC[C@@H]1O[C@H](CCO/N=C(\C)CCN2CCCc3nc(C)c(C)cc32)C=C[C@@H]1Oc1ccc(OC)cc1 = 1.0

query: Tell me the recorded outcome of this test for COC(=O)c1ccc(C(NC(=O)OCc2ccccc2)/C(C)=C/[C@@H](C)C(=O)N[C@@H](CO)Cc2ccccc2)cc1 (some centres undefined) .
result: 1.0

* * *

test system: Dd2; assay: qHTS profiling for inhibitors of Plasmodium falciparum proliferation (AID 504749);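 note: 0% = DMSO vehicle and full inhibition = artemisinin control; nearly all actives have a fitted effect of over 60% in size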; conditions: P. falciparum in erythrocytes, SYBR Green DNA, 72 h; series mostly up to 28.7 µM
Inconclusive results are not listed. Calls of active or inactive are those of the source. Calls follow the shape of the dose curve; as a rule, active = well fitted inhibition curve with a large enough effect; inconclusive = small, poorly fitted or top-dose-only effect; inactive = flat fitted curve, though single readings scatter. Numbered stars: 1 amine (or outer) side, 2 acyl side, 3 side chain; on linkers, the order of the positions; unused ones are H or OH. Bridge positions count the residues as written; N and C are the ends. Square brackets hold non-standard residues; d marks the D form. Peptide text beside a SMILES is read from it. * marks the point of attachment. ξ: configuration not given here. ΔAla(Z-3-ureido) = NC(=O)N/C=C(\N)C(=O)O; X1 = NC1=NCCC(C(N[*:1])C(=O)[*:2])N1; ξβ3hOrn = NCCCC(N)CC(=O)*; Dap = NC[CH](N)C(=O)O
MEASURED_ENDPOINT: outcome

NC(=O)CCC1NC(=O)C(Cc2ccccc2)NC(=O)C(Cc2ccc(O)cc2)NC(=O)CCSSCC(C(=O)N2CCCC2C(=O)NC(CCCN=C(N)N)C(=O)NCC(N)=O)NC(=O)C(CC(N)=O)NC1=O (configuration not stated) = inactive
NCCCC(N)CC(=O)NCC1NC(=O)C(CO)NC(=O)C(N)CNC(=O)C(C2CCN=C(N)N2)NC(=O)/C(=C/NC(N)=O)NC1=O (stereo not drawn) (H-[Dap]S[Dap](ξβ3hOrn)[ΔAla(Z-3-ureido)][X1]; lactam 1-C; configuration not given here) = inactive

* * *

molecular target: Cytochrome P450 2C9 (Homo sapiens) (UniProt P11712); assay: qHTS Assay for Inhibitors and Substrates of Cytochrome P450 2C9 (AID 883); conditions: recombinant CYP2C9, luciferin-H luminescence, 60 min; series mostly up to 11.4 µM; note: nearly all actives have a fitted effect of over 60% in size
Sequence (P11712 whole entry, looked up): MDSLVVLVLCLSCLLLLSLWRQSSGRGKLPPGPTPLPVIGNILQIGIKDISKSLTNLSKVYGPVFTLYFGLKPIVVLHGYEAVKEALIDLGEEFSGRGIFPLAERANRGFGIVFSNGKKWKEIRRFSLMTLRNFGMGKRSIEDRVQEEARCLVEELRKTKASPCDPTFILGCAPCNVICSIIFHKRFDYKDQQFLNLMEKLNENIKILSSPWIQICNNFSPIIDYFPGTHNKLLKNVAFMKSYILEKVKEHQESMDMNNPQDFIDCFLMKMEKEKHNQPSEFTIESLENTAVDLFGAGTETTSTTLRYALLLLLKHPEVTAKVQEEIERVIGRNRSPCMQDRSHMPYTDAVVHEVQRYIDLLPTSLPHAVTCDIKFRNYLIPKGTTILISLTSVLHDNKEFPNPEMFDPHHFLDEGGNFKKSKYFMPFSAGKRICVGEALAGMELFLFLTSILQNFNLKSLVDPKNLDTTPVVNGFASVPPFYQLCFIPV
Records with an inconclusive call do not appear. The source made the active and inactive calls. The call rests on the fitted dose curve; in most records, active means well fitted inhibition curve with a large enough effect; inconclusive means small, poorly fitted or top-dose-only effect; inactive means no such curve, though single readings can be large or run the other way.
Thanks in advance; please answer with one of these: T = active, F = inactive

CCOC(=O)OCC1OC(c2ccccc2)C=CC1Oc1cccc(N(C)C)c1 (stereo not given) = F

query: Name the outcome recorded for COc1ccc(O[C@H]2C=C[C@@H](c3ccccc3)O[C@H]2COC(=O)CC/C(C)=N\O[C@@H](C)c2cn([C@H](CO)Cc3ccccc3)nn2)cc1 in the assay.
result: T

query: Tell me the assay call for OCC1OC(C#Cc2ccccc2)C=CC1OCc1ccccc1 (stereo not given) please.
result: F

query: Record request — test call for CCCCCCC#CC1C=CC(OC(C)=O)C(COC(C)=O)O1 (stereo not given)
result: F

query: Recorded test call requested for CC(=O)OCC1OC(C#CCC2CCCCC2)C=CC1OC(C)=O (stereo not given)
result: F

query: Hi, sorry to bother you, what did the test record for Cc1ccc(OC2C(O)COC2/C=C/C#Cc2ccc(C(C)(C)C)cc2)cc1 (stereo not given) ?
result: F

query: Could you check what this test reported for CCOC(=O)OCC1OC(c2ccc(C(C)=O)cc2)C=CC1OC(=O)OCC (stereo not given) ?
result: F

query: Given COC(=O)NC(c1cccs1)C(C(C)=O)C(=O)OC (stereo not given) , state the outcome it received in this test.
result: F

query: # fetch the recorded call for COC(=O)NC(CC(C)=O)c1ccco1 (stereo not given) here
result: F

query: Kindly provide the recorded test outcome for the following compound: C/C=C/OC(=O)NC(c1ccccc1)[C@@]1(C(=O)OC)CCCC1=O (stereo not given in full)
result: F

* * *

target: Cytochrome P450 2C19 (Homo sapiens); test: qHTS Assay for Inhibitors and Substrates of Cytochrome P450 2C19 (AID 899); details: recombinant CYP2C19, luciferin-H EGE luminescence; series mostly up to 11.4 µM; note: nearly all actives have a fitted effect of over 60% in size; note: potency is the fitted concentration of half-maximal effect
Results filed as inconclusive are left out. Active and inactive are the calls of the source. Calls follow the shape of the dose curve; as a rule, active = well fitted inhibition curve with a large enough effect; inconclusive = small, poorly fitted or top-dose-only effect; inactive = no such curve, though single readings can be large or run the other way.
MEASURED_ENDPOINT: Potency

CO[C@@H]1COC(=O)[C@H]2CCCN2C(=O)C/C=C\[C@@H](C)[C@H](OC)COC(=O)[C@H]2CCCN2C(=O)C/C=C\[C@H]1C = inactive
OCC1OC(c2ccc3c(c2)OCO3)C=CC1Oc1cc(Cl)cc(Cl)c1 (centres undefined) = 79.4 nM (active)
CN1CCc2nc(-c3ccccc3)c(-c3ccccc3)cc2C1 = inactive
CCCNC(=O)OC[C@@H]1O[C@H](CCO/N=C\[C@@H](C)[C@H](OCc2ccccc2)C(C)C)C=C[C@@H]1Oc1ccc(OC)cc1 = 3160 nM (active)

Data origin: PubChem BioAssay (NCATS)
